Data provenance: PubChem BioAssay AID651735

test_description: Vero 76 cell cytotoxicity, cytotoxicity control for VEEV inhibitor project, set 8 (AID 651735)
recorded_conditions: Vero 76 cells viability; series mostly up to 50 µM
Active and inactive are the calls of the source. How the calls were made is not given here.

{"columns": ["smiles_representation", "outcome"],
 "data": [
  ["O=c1c2cc([N+](=O)[O-])ccc2nc(CN2CCCNC2)n1-c1ccccc1", "inactive"],
  ["COc1ccc(Nc2nc(=O)c3cccnc3s2)cc1", "inactive"],
  ["CN1CCN(C)C(=Nc2ccc([N+](=O)[O-])cc2C(=O)Nc2ccccc2)C1", "inactive"],
  ["CCN1CCN(Cc2nc3ccc([N+](=O)[O-])cc3c(=O)n2-c2ccccc2F)CC1", "inactive"]
]}
